Assay: Pharmacokinetic profile summary
Type: in vivo, mice or rats
Conditions: mouse, po, 5 mg/kg; 5 mpk/mice; second number of Plasma/brain pair; read-out: Cmax/(ng/mL) brain

| smi | Cmax, ng/mL |
| --- | --- |
| O=C(/C=C\n1cnc(-c2cc(C(F)(F)F)cc(S(F)(F)(F)(F)F)c2)n1)NNc1ccccn1 | 1770 |

====

System: 3T3
Experiment: Cytotoxicity, cell proliferation assay, 3T3
Type: cell-based
Conditions: Mus musculus, NIH3T3; Table 9
Description: CellTiter-Glo® Luminescent Cell Viability assay (with Promega CellTiter 96® Luminescent CellTiter-Glo® kit) was used to study the proliferation inhibition by test compounds. Compounds were resuspended in DMSO to make a 25 mM stock suspension. […] The cells were lysed by adding CellTiter-Glo® Reagent (per manufacturer's instructions) and subsequently, the luminescence was read using EnVision® (PerkinElmer). The percent of growth was calculated as follows. […]

| molecule | IC50 |
| --- | --- |
| O=C(/C=C\n1cnc(-c2cc(C(F)(F)F)cc(S(F)(F)(F)(F)F)c2)n1)NNc1cnccn1 [Compound I] | > 50 µM |
| O=C(/C=C\n1cnc(-c2cc(C(F)(F)F)cc(C(F)(F)F)c2)n1)NNc1cnccn1 [KPT-330, reference compound] | > 50 µM |

====

System: T98G
Assay: CellTiter-Glo cell proliferation assay, T98G
Type: cell-based
Details: Homo sapiens, T98G; Table 11; read-out: Absolute IC50 (μM) T98G

| molecule | IC50 [µM] |
| --- | --- |
| O=C(/C=C\n1cnc(-c2cc(C(F)(F)F)cc(S(F)(F)(F)(F)F)c2)n1)NNc1cnccn1 [Compound I] | 1.7 |
| O=C(/C=C\n1cnc(-c2cc(C(F)(F)F)cc(S(F)(F)(F)(F)F)c2)n1)NNc1nccs1 [Compound VI] | 2.6 |
| O=C(/C=C\n1cnc(-c2cc(C(F)(F)F)cc(C(F)(F)F)c2)n1)NNc1cnccn1 [KPT-330, reference compound] | 0.8 |
| O=C(/C=C\n1cnc(-c2cc(C(F)(F)F)cc(S(F)(F)(F)(F)F)c2)n1)NNc1ccccn1 [Compound II] | 1.9 |
| CC(C)(C)C(=O)NNC(=O)/C=C\n1cnc(-c2cc(C(F)(F)F)cc(S(F)(F)(F)(F)F)c2)n1 [Compound III] | 6.2 |

====

Reported AUC(0-t) is given for each of the following compounds.
Test: Pharmacokinetic profile in plasma
Format: in vivo
Settings: mouse, iv, I. V., mice

| compound | AUC(0-t) |
| --- | --- |
| O=C(/C=C\n1cnc(-c2cc(C(F)(F)F)cc(S(F)(F)(F)(F)F)c2)n1)NNc1ccccn1 [Compound II] | 1620 ng·h/mL |
| O=C(/C=C\n1cnc(-c2cc(C(F)(F)F)cc(S(F)(F)(F)(F)F)c2)n1)NNc1cnccn1 [Compound I] | 1040 ng·h/mL |

====

Experiment: Pharmacokinetic profile summary
Type: in vivo, mice or rats
Details: po, 5 mg/kg; 5 mpk; first number of Plasma/brain pair; read-out: Cmax/(ng/mL) Plasma

| smi | Cmax (ng/mL) |
| --- | --- |
| NC(=O)/C(=C/n1cnc(-c2cc(C(F)(F)F)cc(S(F)(F)(F)(F)F)c2)n1)c1cncnc1 | 276 |

====

Experiment: Pharmacokinetic profile in plasma
Format: in vivo
Conditions: mouse, po, P.O., mice

| molecule | display_unit | Tmax |
| --- | --- | --- |
| O=C(/C=C\n1cnc(-c2cc(C(F)(F)F)cc(S(F)(F)(F)(F)F)c2)n1)NNc1cnccn1 [Compound I] | h | 0.75 |
| O=C(/C=C\n1cnc(-c2cc(C(F)(F)F)cc(S(F)(F)(F)(F)F)c2)n1)NNc1ccccn1 [Compound II] | h | 2 |

====

Assay: Pharmacokinetic profile summary
Type: in vivo, mice or rats
Conditions: plasma, po, 10 mg/kg; 10 mpk
measured_parameter: log10 of AUC (log10 of the value in ng·h/mL)

| compound | test_value |
| --- | --- |
| CC(C)(C)C(=O)NNC(=O)/C=C\n1cnc(-c2cc(C(F)(F)F)cc(S(F)(F)(F)(F)F)c2)n1 [Compound III] | 4.14 |
| NC(=O)/C(=C/n1cnc(-c2cc(C(F)(F)F)cc(S(F)(F)(F)(F)F)c2)n1)c1cncnc1 [Compound IV] | 3.03 |
| O=C(/C=C\n1cnc(-c2cc(C(F)(F)F)cc(S(F)(F)(F)(F)F)c2)n1)NNc1ccccn1 [Compound II] | 3.62 |
| O=C(/C=C\n1cnc(-c2cc(C(F)(F)F)cc(C(F)(F)F)c2)n1)NNc1cnccn1 [KPT-330, reference compound] | 3.93 |
| O=C(/C=C\n1cnc(-c2cc(C(F)(F)F)cc(S(F)(F)(F)(F)F)c2)n1)NNc1cnccn1 [Compound I] | 4.00 |

====

Tested on: A-172
Experiment: CellTiter-Glo cell viability assay, A-172
Type: cell-based
Details: Homo sapiens, Table 6
pIC50: −log10 of the molar value.
measured_parameter: pIC50

| compound | measured_parameter | test_value |
| --- | --- | --- |
| O=C(/C=C\n1cnc(-c2cc(C(F)(F)F)cc(S(F)(F)(F)(F)F)c2)n1)NNc1cnccn1 [Compound I] | pIC50 | 6.39 |
| O=C(/C=C\n1cnc(-c2cc(C(F)(F)F)cc(C(F)(F)F)c2)n1)NNc1cnccn1 [KPT-330, reference compound] | pIC50 | 6.65 |

====

Assay: in vivo
Settings: female, BALB/c Nude, mouse

| compound | MTD, mg/kg |
| --- | --- |
| O=C(/C=C\n1cnc(-c2cc(C(F)(F)F)cc(C(F)(F)F)c2)n1)NNc1cnccn1 [KPT-330, reference compound] | 15 |

====

Assay: Pharmacokinetic profile in plasma
Type: in vivo
Details: mouse, iv, I. V., mice, read-out: MRT0-last
Reported MRT last is given for each of the following compounds.

| compound | MRT last (h) |
| --- | --- |
| O=C(/C=C\n1cnc(-c2cc(C(F)(F)F)cc(S(F)(F)(F)(F)F)c2)n1)NNc1ccccn1 [Compound II] | 4.76 |
| O=C(/C=C\n1cnc(-c2cc(C(F)(F)F)cc(S(F)(F)(F)(F)F)c2)n1)NNc1cnccn1 [Compound I] | 1.56 |

====

Target: XPO1 (Homo sapiens)
Sequence (O14980 whole entry): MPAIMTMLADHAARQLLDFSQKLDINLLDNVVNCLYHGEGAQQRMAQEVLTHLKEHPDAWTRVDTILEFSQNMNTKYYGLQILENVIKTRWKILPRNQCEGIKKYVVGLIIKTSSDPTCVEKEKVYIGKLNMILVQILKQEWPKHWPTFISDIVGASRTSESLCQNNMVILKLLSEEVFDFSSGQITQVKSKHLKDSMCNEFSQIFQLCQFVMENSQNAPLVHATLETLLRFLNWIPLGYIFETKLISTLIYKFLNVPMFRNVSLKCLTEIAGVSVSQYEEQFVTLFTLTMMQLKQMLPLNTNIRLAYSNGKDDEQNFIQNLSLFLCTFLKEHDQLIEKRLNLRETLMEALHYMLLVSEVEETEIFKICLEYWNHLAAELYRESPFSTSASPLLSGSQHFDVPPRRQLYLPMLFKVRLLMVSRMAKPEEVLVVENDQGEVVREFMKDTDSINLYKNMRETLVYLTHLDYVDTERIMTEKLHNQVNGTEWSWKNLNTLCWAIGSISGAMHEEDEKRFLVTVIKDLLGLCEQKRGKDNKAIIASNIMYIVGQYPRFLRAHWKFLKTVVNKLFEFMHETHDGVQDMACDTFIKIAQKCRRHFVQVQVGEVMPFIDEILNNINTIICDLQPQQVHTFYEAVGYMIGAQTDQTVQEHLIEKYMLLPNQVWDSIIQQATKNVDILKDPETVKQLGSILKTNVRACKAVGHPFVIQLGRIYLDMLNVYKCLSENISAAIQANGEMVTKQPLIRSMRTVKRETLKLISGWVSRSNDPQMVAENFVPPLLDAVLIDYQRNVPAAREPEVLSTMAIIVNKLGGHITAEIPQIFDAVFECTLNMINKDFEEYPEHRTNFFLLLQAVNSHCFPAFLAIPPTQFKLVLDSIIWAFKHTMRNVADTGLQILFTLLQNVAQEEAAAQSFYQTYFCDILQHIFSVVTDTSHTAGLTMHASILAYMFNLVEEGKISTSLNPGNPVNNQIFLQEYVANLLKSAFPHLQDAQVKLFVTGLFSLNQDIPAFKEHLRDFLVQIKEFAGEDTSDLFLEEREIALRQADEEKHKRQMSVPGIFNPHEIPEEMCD
Assay: REV-GFP translocation assay in U2OS cells
Assay type: cell-based
Design: endogenous in cells; host or cells: U2OS cells stably expressing REV-GFP (clones from HD Biosciences)
Details: Table 10; first (or only) value of the cell
pIC50: −log10 of the molar value.

| compound | pIC50 |
| --- | --- |
| O=C(/C=C\n1cnc(-c2cc(C(F)(F)F)cc(S(F)(F)(F)(F)F)c2)n1)NNc1nccs1 [Compound VI] | 7.60 |
| O=C(/C=C\n1cnc(-c2cc(C(F)(F)F)cc(S(F)(F)(F)(F)F)c2)n1)NNc1ccccn1 [Compound II] | 7.45 |
| CC(C)(C)C(=O)NNC(=O)/C=C\n1cnc(-c2cc(C(F)(F)F)cc(S(F)(F)(F)(F)F)c2)n1 [Compound III] | 6.53 |
| NC(=O)/C(=C/n1cnc(-c2cc(C(F)(F)F)cc(S(F)(F)(F)(F)F)c2)n1)c1cncnc1 [Compound IV] | 7.83 |
| O=C(/C=C\n1cnc(-c2cc(C(F)(F)F)cc(S(F)(F)(F)(F)F)c2)n1)NNc1cnccn1 [Compound I] | 7.79 |

====

Reported pIC50 is given for each of the following compounds.
Test system: U87MG
Assay: CellTiter-Glo cell proliferation assay, U87MG
Assay type: cell-based, human
Details: Homo sapiens, U-87 MG, U87MG; Table 12; read-out: Relative IC50
pIC50: −log10 of the molar value.
measured_parameter: pIC50

| compound | system_tested | test_value |
| --- | --- | --- |
| O=C(/C=C\n1cnc(-c2cc(C(F)(F)F)cc(S(F)(F)(F)(F)F)c2)n1)NNC(=O)C1CCC1 | U87MG | 6.70 |
| CC(C)(C)C(=O)NNC(=O)/C=C\n1cnc(-c2cc(C(F)(F)F)cc(S(F)(F)(F)(F)F)c2)n1 | U87MG | 6.70 |
| CC(CO)(CCl)C(=O)NNC(=O)/C=C\n1cnc(-c2cc(C(F)(F)F)cc(S(F)(F)(F)(F)F)c2)n1 (centres unmarked) | U87MG | 6.22 |
| CC(C)C(=O)NNC(=O)/C=C\n1cnc(-c2cc(C(F)(F)F)cc(S(F)(F)(F)(F)F)c2)n1 | U87MG | 7.00 |
| CC(C)(C)C(=O)NNC(=O)/C=C\n1cnc(-c2cc(C(F)(F)F)cc(C(F)(F)F)c2)n1 [KPT-350, reference compound] | U87MG | 6.52 |
| O=C(/C=C\n1cnc(-c2cc(C(F)(F)F)cc(S(F)(F)(F)(F)F)c2)n1)NNC(=O)C1CC1 | U87MG | 7.00 |
| CC1(C(=O)NNC(=O)/C=C\n2cnc(-c3cc(C(F)(F)F)cc(S(F)(F)(F)(F)F)c3)n2)CC1 | U87MG | 6.70 |
| CCCC(=O)NNC(=O)/C=C\n1cnc(-c2cc(C(F)(F)F)cc(S(F)(F)(F)(F)F)c2)n1 | U87MG | 7.00 |
